# measuredOn: NAD-dependent protein deacetylase sirtuin-2 (Homo sapiens)
# Sequence (Q8IXJ6 whole entry, the tested form may be a part): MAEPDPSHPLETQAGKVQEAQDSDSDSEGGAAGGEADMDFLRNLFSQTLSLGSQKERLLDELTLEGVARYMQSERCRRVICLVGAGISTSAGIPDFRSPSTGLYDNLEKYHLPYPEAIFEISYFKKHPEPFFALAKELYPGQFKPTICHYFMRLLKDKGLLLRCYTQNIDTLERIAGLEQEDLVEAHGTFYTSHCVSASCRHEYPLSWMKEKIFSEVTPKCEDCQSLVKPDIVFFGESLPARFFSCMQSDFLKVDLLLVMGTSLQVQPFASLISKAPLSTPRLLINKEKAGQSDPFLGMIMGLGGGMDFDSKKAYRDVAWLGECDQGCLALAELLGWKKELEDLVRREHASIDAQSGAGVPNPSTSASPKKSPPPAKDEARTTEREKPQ
# experiment: Inhibition of SIRT2 deacetylation activity (unknown origin) using H3K9Ac ( 4 to 15 residues) as substrate by HPLC analysis
Assign labels as follows, please: T for IC50 below 60 µM; F for IC50 equal to or exceeding 60 µM.

Answered examples (4):
mol=O=C(On1nnc2ccccc21)c1c[nH]c2ccccc12 group=T
mol=Cc1ccc2[nH]cc(C(=O)On3nnc4ccccc43)c2c1 group=F
mol=O=C(On1nnc2ncccc21)c1c[nH]c2ccc(Br)cc12 group=F
mol=O=C(On1nnc2ccccc21)c1ccc[nH]1 group=T

Here's the next entry for you.
Enquiry: I'd appreciate it if you could check whether "O=C(On1nnc2ccccc21)c1cc[nH]c1" has IC50 smaller than 60 µM.
Return: T
